Where do these numbers come from? They come from patent US20230372448A1.

Target: human GLP-1 receptor (human, UniProt P43220 24-463)
Assay: cell-based or functional assay
Positions of bridges follow the written chain, without caps; N, C: chain ends. Non-standard residues stand in square brackets, D forms with d. No end group written: not given here. Aib = CC(C)(N)C(=O)O
The label satisfied is reserved for In vitro activity (%) compared with native peptide: vs GLP-1 strictly under 10%; not satisfied covers values equal to or above it.

BINDER	CATEGORY
HGQGTFTSDCSKYLDEQHAQEFVAWLLAGGPSSGAPPPS (ends and bridges not checked) [triple agonist of SEQ ID NO: 46]	satisfied
H[Aib]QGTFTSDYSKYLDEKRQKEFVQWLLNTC (bridge 16-20; not fully specified) [triple agonist of SEQ ID NO: 51]	not satisfied
Y[Aib]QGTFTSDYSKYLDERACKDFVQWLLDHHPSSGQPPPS (bridge 16-20; not fully specified) [triple agonist of SEQ ID NO: 71]	not satisfied
Y[Aib]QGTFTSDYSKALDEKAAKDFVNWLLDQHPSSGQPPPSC (bridge 16-20) [triple agonist of SEQ ID NO: 102]	not satisfied
Y[Aib]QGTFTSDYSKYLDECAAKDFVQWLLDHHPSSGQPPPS (bridge 16-20) [triple agonist of SEQ ID NO: 67]	not satisfied
